Listed below: growth values for each entry.
# System: U251 CNS
# experimental.details: NCI-60 one-dose screen, 48 h (100 = growth as untreated, 0 = no growth, -100 = all killed)
# setup.conditions: 10 µM unless noted
Compounds without any hit were thinned out: in the full panel of roughly 83,000, 20% have a hit.
Report the figure in % without appending any unit label.

Reference set (4 entries):
COc1ccc(C(=S)N2CCN(c3cccc(Cl)c3)CC2)cc1 ... 112
CN1CCN(CCCOc2cccc3nc(Nc4ccc(Cl)c(F)c4)ccc23)CC1 ... 26.1
O=C1c2cccc3cccc(c23)C(=O)N1CCCCCN1CCN(CCCCCOc2ccc(-c3nc4ccc(N5CCOCC5)cc4[nH]3)cc2)CC1 ... 99.6
Cc1ccc(/C=C2\SC(=S)N(CC(=O)NCCCN3CCOCC3)C2=O)cc1 ... 100

Here is the next item to consider.
Request body: readout growth, system U251 CNS, query COc1ccc(C2Nc3c(c(C(C)(C)C)nn3-c3ccccc3)C(=O)CS2)cc1 (stereo not given) . Return the value.
102

----------
# Test system: MALME-3M melanoma
# experimental.details: NCI-60 one-dose screen, 48 h (100 = growth as untreated, 0 = no growth, -100 = all killed)
# setup.conditions: 10 µM unless noted
This is part of a sample that, as a whole, favours compounds with a hit. Of some 83,000 tested, about 20% had one in any assay.
Classification field: Yes = growth at or over 50%; No = growth under 50%.

O=C(N=Nc1c(O)[nH]c2ccccc12)c1cc(-c2ccccc2)on1 ... Yes
COc1ccc(CN2c3ccccc3Oc3ccccc32)cc1O ... No
Cc1nc2c3c(-c4ccccc4)c(-c4ccccc4)oc3ncn2n1 ... Yes
COc1cc(CNc2oc(-c3ccccc3)c(-c3ccccc3)c2C#N)cc(CN2CCN(C)CC2)c1O ... No

Can CCCCCCN(CCCCCC)CCC(O)c1ccc2ccccc2c1 (centres undefined) be said to have growth at or above 50%?
Yes

Entry COc1ccc(-n2nc(C)c3c(Oc4ccc(NC(=O)Nc5c(Cl)cccc5Cl)cc4)ncnc32)cc1 : is its growth no less than 50%?
Yes

----------
# Tested on: MALME-3M melanoma
# experimental.details: NCI-60 one-dose screen, 48 h
# setup.conditions: 10 µM unless noted
Compounds without any hit were thinned out: in the full panel of roughly 83,000, 20% have a hit. Active and inactive are the calls of the source. Rule for the calls: active = growth percent below 10; inactive = the rest.
Respond with a class label; see yes (1) (active), no (0) (inactive)

Check the results log: what was the call for CC(O)CN(CC(C)O)c1ccc2c(c1)Cc1cc([N+](=O)[O-])ccc1-2 (stereo not given) ?
no (0)

Query: recorded result category for Fc1ccc(CNc2cccc3[nH]c(C(F)(F)F)nc23)cc1 in this test
no (0)

For COc1cccc(-c2nc(SCC(=O)Nc3ccc(C(=O)/C=C/c4ccc(OC)c(OC)c4)cc3)[nH]c(=O)c2C#N)c1 , which call appears in the assay record?
no (0)

Hi, sorry to bother you, what did the test record for O=C1c2cccc3cccc(c23)C(=O)N1CCCCCN1CCN(CCCCCOc2ccc(-c3nc4ccc(N5CCOCC5)cc4[nH]3)cc2)CC1 ?
no (0)

----------
# Test system: SR leukemia
# experimental.details: NCI-60 one-dose screen, 48 h (100 = growth as untreated, 0 = no growth, -100 = all killed)
# setup.conditions: 10 µM unless noted
About 83,000 compounds went through this panel and 20% of them were active in at least one assay; those are over-represented in the sample as a whole. Activity calls are given as the source filed them. How the source made its calls: active means growth percent below 10; inactive means the rest.
observed.property: growth

Illustrative cases are given below, each with its answer.
Cc1nn(-c2ccc(F)cc2)c2ncnc(Oc3ccc(NC(=O)Nc4ccc(Cl)c(C(F)(F)F)c4)cc3)c12 ... 110% (inactive)
COc1cc2c(cc1O)CC[C@@H]1[C@@H]2CC[C@]2(C)[C@@H](OCCN(C)C)CC[C@@H]12 ... -11.6% (active)
COc1cc(Nc2cc(C)nc(N3CCN(c4ccnc5cc(Cl)ccc45)CC3)n2)cc(OC)c1 ... -4.09% (active)

I would be grateful if you could share the reported growth for Cc1cc(C)nc(SC2=C(Nc3ccc(C)c(Cl)c3)C(=O)N(Cc3ccccc3)C2=O)n1 .
25.4% [30 µM] (inactive)

Need growth of FC(F)(F)Oc1ccc2nc3nc4ccc[nH]c4cc3c2c1 , thanks.
43.9% (inactive)

# query: growth of entry COc1ccc2nc(NC(=O)CSc3nnc4n3S(=O)(=O)c3ccccc3N4c3ccccc3)sc2c1
66.6% (inactive)

Looking for the measured growth of O=c1ccccc(-c2ccc(-c3ccco3)cc2)c1O , can you help?
10% (inactive)

Could you share which growth value was measured for COc1ccc(CN2c3ccccc3Oc3ccccc32)cc1O ?
17.4% (inactive)

# get_value(readout='growth', item= COc1ccc(NC2=C(Sc3nc(C)cc(C)n3)C(=O)N(Cc3ccccc3)C2=O)cc1Cl )
63.4% [30 µM] (inactive)

Quick one: growth for CC1=C[C@H]2c3c(c(O)c(O)c4oc5ccccc5c(=O)c34)[C@H](c3cc(O)c(O)c4oc5ccccc5c(=O)c34)[C@H]2C(C)(C)C1 ?
0.353% (active)

What value of growth has been reported for the following compound? O=C1OC(c2ccccc2)C(O)=C1c1ccccc1 (stereo not given)
109% (inactive)

Item C(=N/Nc1ncc(-c2cc3cc(-c4ccccc4)ccc3o2)s1)/c1cccs1 has what recorded growth?
79% (inactive)

Reported growth, compound O=C1c2cc3c(cc2-c2c1c1ccc(Cl)cc1c(=O)n2CCCN1CCOCC1)OCO3 : ____
4.71% (active)

I would be grateful if you could share the reported growth for Nc1ccc(-c2cc3c(NCc4ccccc4)ncnc3s2)cc1 .
81.5% (inactive)

If you can, please state the reported growth value of CCOc1cc2ncc(C#N)c(Nc3ccc(OCc4cccc(F)c4)c(Cl)c3)c2cc1NC(=O)CCCCC1CCSS1 (stereo not given) .
92.4% (inactive)

What does the data say about its growth? Entry: CC(=O)c1cc2c(N)c(C(=O)Nc3ccccc3)sc2nc1C
51.8% (inactive)

Request the reported growth associated with CCOc1nc(-c2ccccc2)cc2c(O)c(C(=O)O)[nH]c(=O)c12
98.1% (inactive)

What growth value was documented for this compound, Cc1cc2nc(NC(=O)CN3CCN(CCN4C(=O)c5cccc6cccc(c56)C4=O)CC3)sc2cc1C ?
35.3% (inactive)

Please give the measured growth for this compound: CCN(CC)c1ccc2c(c1)Oc1nc(N)c(C#N)c(N)c1C2Sc1ccc(SC)cc1 (stereo not given)
-18.8% (active)

Please report the recorded growth for O=C1c2cc3c(cc2-c2c1c1cc(F)c(F)cc1c(=O)n2CCCn1ccnc1)OCO3 .
-2.4% (active)

----------
# System: MDA-MB-231 breast
# experimental.details: NCI-60 one-dose screen, 48 h
# setup.conditions: 10 µM unless noted
Compounds without any hit were thinned out: in the full panel of roughly 83,000, 20% have a hit. Active and inactive are the calls of the source. Rule for the calls: active = growth percent below 10; inactive = the rest.
Form entry, call: pick from active, inactive

Solved entries:
CCN1CCN(c2nc(NCCNc3ccnc4cc(Cl)ccc34)c3ccccc3n2)CC1 ... active
CCCCn1c(-c2ccc(C(=O)O/N=C(\N)c3ccc4c(c3)OCO4)cc2)nc(-c2ccccc2)c1-c1ccccc1 ... inactive
CCOC(=O)C(C)(C#N)C1C=CCCC1 (stereo unspecified) ... inactive
COc1cccc(Nc2nc(SC)nc(-c3cccc([N+](=O)[O-])c3)c2C#N)c1 ... inactive
COc1cc(/C=C/C(=O)c2c(C)oc3nc[nH]c(=O)c23)cc(OC)c1OC ... inactive
COc1ccc(C(=O)COc2ccc(/C=C3\COc4ccc(OC)cc4C3=O)cc2)cc1 ... inactive
O=C1c2ccccc2C(=O)c2c(N=Nc3[nH]c(=S)[nH]c3O)cccc21 ... inactive
CCOC(=O)n1cc(-c2nonc2-c2cn(C)c3ncccc23)c2cc(F)ccc21 ... inactive

Alright, here's another molecule for you.
Call for entry CC(O)CN1CC(O)=C(c2nc3ccccc3s2)C1=N (stereo unspecified) :
inactive

----------
# System: SK-MEL-5 melanoma
# experimental.details: NCI-60 one-dose screen, 48 h
# setup.conditions: 10 µM unless noted
The panel holds about 83,000 compounds, 20% with a hit somewhere; the sample as a whole holds those more often. The source made the active and inactive calls. Rule for the calls: active = growth percent below 10; inactive = the rest.
Your response should consist of one outcome taken from active, inactive

CCCCC(=O)OCC1OC(n2cnc3c(=S)nc[nH]c32)C(OC(=O)CCCC)C1OC(=O)CCCC (stereo unspecified) ... inactive
CCCCn1cnc2c(Sc3c([N+](=O)[O-])ncn3C)nc(N)nc21 ... inactive
COc1ccc(CCNc2nc(SC)nc(-c3cccc([N+](=O)[O-])c3)c2C#N)cc1OC ... inactive
O=C(O)c1ccc(NC(=O)c2ccc(-c3cccc([N+](=O)[O-])c3)o2)cc1 ... inactive
C(=N/Nc1ncc(-c2cc3cc(-c4ccccc4)ccc3o2)s1)/c1cccs1 ... inactive

What was the test verdict on C=CC(=O)Nc1cccc(-c2nc(SC)nc(NCCN3CCOCC3)c2C#N)c1 ?
inactive
